Quick reference: EC50 of the listed items.
# assaySystem: rat pituitary cells (Rattus norvegicus, UniProt O08725)
# Sequence (O08725 whole entry): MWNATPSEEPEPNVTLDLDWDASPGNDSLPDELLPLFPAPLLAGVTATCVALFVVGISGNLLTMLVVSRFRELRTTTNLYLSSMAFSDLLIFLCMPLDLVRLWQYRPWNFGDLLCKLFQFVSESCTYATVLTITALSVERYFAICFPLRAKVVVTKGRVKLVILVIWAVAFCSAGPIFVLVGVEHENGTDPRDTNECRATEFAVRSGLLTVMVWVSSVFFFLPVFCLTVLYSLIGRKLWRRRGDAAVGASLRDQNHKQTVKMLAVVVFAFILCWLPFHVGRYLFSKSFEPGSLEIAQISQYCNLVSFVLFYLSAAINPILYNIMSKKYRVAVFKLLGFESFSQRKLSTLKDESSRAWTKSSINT
# protocolConditions: read-out: PIT Cell EC50; Table III, formula IV compounds; GH release, 15 min incubation
Starred links: 1 amine or outer side, 2 acyl side, 3 side chain; linkers in the order of their positions; H or OH if unused. Non-standard residues stand in square brackets, D forms with d. Residues, ends and D or L forms follow the SMILES beside them. d2Nal = N[C@H](Cc1ccc2ccccc2c1)C(=O)O; β3hAib = CC(C)(CC(=O)[*:2])N[*:1]

| molecule | assaySystem | EC50 / nM |
| --- | --- | --- |
| C[C@@H](N)C(=O)N[C@H](Cc1c[nH]c2ccccc12)C(=O)N[C@H](Cc1c[nH]c2ccccc12)C(=O)N[C@@H](Cc1ccccc1)C(=O)N[C@@H](CCCCN)C(N)=O [a w w F K amide] (H-[dA][dW][dW]FK-NH2) | rat pituitary cells (Rattus norvegicus, UniProt O08725) | 4.1 |
| NCCCC[C@H](NC(=O)[C@H](Cc1ccccc1)NC(=O)[C@@H](Cc1ccc2ccccc2c1)NC(=O)[C@@H](Cc1ccc2ccccc2c1)NC(=O)CN)C(N)=O [G b b F K amide] (H-G[d2Nal][d2Nal]FK-NH2) | rat pituitary cells (Rattus norvegicus, UniProt O08725) | 14.9 |
| NCCCNC(=O)[C@H](Cc1ccc2ccccc2c1)NC(=O)[C@@H](Cc1ccc2ccccc2c1)NC(=O)[C@@H](Cc1ccc2ccccc2c1)NC(=O)CCCN [(Ab) b b B ram] | rat pituitary cells (Rattus norvegicus, UniProt O08725) | 2.4 |
| CC(C)(N)CC(=O)N[C@H](Cc1ccc2ccccc2c1)C(=O)N[C@H](Cc1ccc2ccccc2c1)C(=O)N[C@@H](Cc1ccccc1)C(=O)N[C@@H](CCCCN)C(N)=O [(nba) b b F K amide] (β3hAib-[d2Nal][d2Nal]FK-NH2) | rat pituitary cells (Rattus norvegicus, UniProt O08725) | 2.8 |
| NCCCC[C@H](NC(=O)[C@H](Cc1ccccc1)NC(=O)[C@@H](Cc1ccc2ccccc2c1)NC(=O)[C@@H](Cc1c[nH]c2ccccc12)NC(=O)[C@@H](N)Cc1c[nH]cn1)C(N)=O [H w b F K amide] (H-H[dW][d2Nal]FK-NH2) | rat pituitary cells (Rattus norvegicus, UniProt O08725) | 15 |
